- target.under.test: human LPA2 receptor (Homo sapiens)
- Sequence (Q9HBW0 whole entry): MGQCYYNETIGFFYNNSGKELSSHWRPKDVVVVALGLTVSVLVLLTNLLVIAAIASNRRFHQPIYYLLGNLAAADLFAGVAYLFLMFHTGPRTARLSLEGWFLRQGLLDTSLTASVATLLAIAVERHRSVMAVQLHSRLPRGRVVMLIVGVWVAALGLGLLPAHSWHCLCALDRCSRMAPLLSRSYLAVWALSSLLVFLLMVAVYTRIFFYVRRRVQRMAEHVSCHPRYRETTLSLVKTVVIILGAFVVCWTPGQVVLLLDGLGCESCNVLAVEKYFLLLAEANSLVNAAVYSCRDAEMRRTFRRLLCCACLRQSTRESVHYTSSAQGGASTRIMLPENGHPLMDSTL
- assay.method.text: Dynamic mass redistribution (DMR) assay in CHOLPA2 cells
- measurement.setup: CHOLPA2, DMR; negative DMR signal; peak; up to 10 µM (compound 35 up to 1 µM); °inactive at 10 μM
quantity: Agonism Emax

Cc1noc(-c2ccc(CSCCC(=O)O)cc2)c1NC(=O)OC(C)c1ccccc1Cl (centres unmarked) [KI 16425]: Crc incomplete
O=C1C[C@@](O)(C(F)(F)F)c2c(-c3cccc(F)c3)n[nH]c2N1 [Compound 20]: −94 ± 6 pm
Cc1noc(-c2ccc(-c3ccc(C4(C(=O)O)CC4)cc3)cc2)c1NC(=O)O[C@H](C)c1ccccc1 [BMS-986020]: Crc incomplete
Cc1csc2c(N[C@@H](C)CN3CCN(S(=O)(=O)c4ccc(Cl)c(Cl)c4)CC3)ncnc12 [Compound 35]: Crc incomplete
